Reference source: patent US20220315534A1

assayed.system: β1-adrenergic receptor (B1-AR) (Homo sapiens, UniProt P08588)
Construct: expressed in transfected cells
Sequence (P08588 whole entry): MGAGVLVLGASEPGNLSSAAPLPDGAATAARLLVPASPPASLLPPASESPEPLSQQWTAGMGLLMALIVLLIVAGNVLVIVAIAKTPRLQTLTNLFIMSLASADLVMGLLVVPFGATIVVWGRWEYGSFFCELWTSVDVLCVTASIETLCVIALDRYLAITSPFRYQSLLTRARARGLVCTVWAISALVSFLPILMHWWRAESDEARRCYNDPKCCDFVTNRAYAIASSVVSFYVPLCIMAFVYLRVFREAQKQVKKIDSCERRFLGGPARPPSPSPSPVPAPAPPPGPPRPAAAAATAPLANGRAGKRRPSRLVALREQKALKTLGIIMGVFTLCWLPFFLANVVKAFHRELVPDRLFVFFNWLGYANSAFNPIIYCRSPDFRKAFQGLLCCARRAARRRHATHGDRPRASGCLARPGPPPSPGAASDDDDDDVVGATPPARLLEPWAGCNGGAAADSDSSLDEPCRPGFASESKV
assay.info: cAMP Gs dynamic HTRF assay, cells expressing β1-adrenergic receptor
Assay type: cell-based
details: CHO-K1 (HitHunter) cells; read-out: Average pEC50 [Receptor subtype: B1-AR; Cell type: CHO-K1 (HitHunter)] (converted)
value.type: EC50

Worked cases, EC50 given:
INSERT INTO results (structure_smiles_string, value_type, test_value) VALUES
  ('CC(C)(C)NC[C@H](O)c1ccc2[nH]c3ccccc3c2c1', 'EC50', '> 1000 nM'),
  ('CC(C)(C)NC[C@H](O)c1ccc2nn[nH]c2c1', 'EC50', '100 to 1000 nM'),
  ('CC(C)(C)NC[C@H](O)c1ccc2c(c1)C1(CC1)CN2', 'EC50', '> 1000 nM'),
  ('CC(C)(C)NC[C@H](O)c1cccc2c1C(F)(F)C(=O)N2', 'EC50', '10 to 100 nM'),
  ('Cc1cc2c([C@@H](O)CNC(C)(C)C)cccc2[nH]c1=O', 'EC50', '< 10 nM'),
  ('CC(C)(C)NC[C@H](O)c1ccc(C(F)(F)F)c2cccnc12', 'EC50', '< 10 nM');

Give the measured EC50 of Cn1ncc2cc([C@H](O)CNC(C)(C)C)ccc21 .
100 to 1000 nM

EC50 for CC(C)(C)NC[C@H](O)c1cccc2[nH]c3cccnc3c12 ?
< 10 nM

// query EC50 value for entry COc1ccc(C[C@@H](C)NC[C@H](O)c2ccc3c(n2)NCCO3)cc1
100 to 1000 nM

So what's the measured EC50 for this one? CC(C)(C)NC[C@@H](O)c1ccc2cccc(C#N)c2n1
10 to 100 nM

Fill blank: measured EC50 of the compound CC(C)(C)NC[C@H](O)c1cccc2c(C(F)(F)F)ccnc12 is ____.
10 to 100 nM

Please look up its EC50: CC(C)(C)NC[C@H](O)c1cc(F)c2[nH]cnc2c1
10 to 100 nM

For CC(C)(C)NC[C@H](O)c1cccc2[nH]nc(F)c12 , what is its reported EC50?
< 10 nM

Dear colleague, I am looking for the recorded EC50 of the following compound: CC(C)(C)NC[C@H](O)c1cccc2c1C(C)(C)C(=O)N2
100 to 1000 nM

Tell me the measured EC50 of CC(C)(C)NC[C@H](O)c1nccc2[nH]c(=O)ccc12 , please.
> 1000 nM

====

assayed.system: β1-adrenergic receptor (B1-AR) (Homo sapiens, UniProt P08588)
Construct: expressed in transfected cells
assay.info: cAMP Gs dynamic HTRF assay, cells expressing β1-adrenergic receptor
Format: cell-based
details: CHO-K1 (HitHunter) cells; read-out: Average pEC50 [Receptor subtype: B1-AR; Cell type: CHO-K1 (HitHunter)] (converted)
Collected EC50 values appear next to each entry.

In the examples that follow, each entry is paired with its recorded EC50.
INSERT INTO measurements (molecule, value_type, test_value) VALUES
  ('COc1ccc(C[C@@H](C)NC[C@H](O)c2cccc3[nH]c4ccccc4c23)cc1', 'EC50', '10 to 100 nM'),
  ('CC(C)(C)NC[C@H](O)c1ccc(Cl)c2[nH]ncc12', 'EC50', '< 10 nM'),
  ('CC(C)(C)NC[C@@H](O)c1nccc2[nH]ncc12', 'EC50', '> 1000 nM'),
  ('CC(C)(C)NC[C@@H](O)c1ccc(F)c2cccnc12', 'EC50', '100 to 1000 nM'),
  ('Cc1nc(N)c(C#N)cc1[C@H](O)CNC(C)(C)C', 'EC50', '> 1000 nM');

Entry CC(C)(C)NC[C@H](O)c1cccc2[nH]ccc12 has what EC50?
> 1000 nM

May I ask what EC50 has been recorded for CC(C)(C)NC[C@H](O)c1ccc2ncccc2c1 ?
100 to 1000 nM
